These measurements were taken from patent US20030148958A1.

- Measured On: corticotropin releasing factor 1 receptor
- Test Summary: cell-based or functional assay; also: reference of the scale not given here
Ends that are not written are not given here.
Below, each of the binders is paired with its reported CRF1R Emax value.
Output spec: scalar in %, unitless text.

Record summary for DNPSLSIDLPLLLLRTLLELARTQSQRERAEQNAIIFASV-NH2 [SEQ ID NO 174] : reported CRF1R Emax = 29.1

In plain terms, IVLSLDVPIGLLQILLEQRAAREQATTNARILARV-NH2 [SEQ ID NO 136] has a documented CRF1R Emax of 8

The reported value for ZGPPISIDLPIYLLRKMIEIEKQEKEKQQATTNARILARV (C-terminal amide) [SEQ ID NO 149] in terms of CRF1R Emax is 40.7
